The reported numbers originate from the supplement of paper PMC3545927.

Measured Target: furin, P09958;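 further: purified furin at 1:10 enzyme:substrate in 50 mM HEPES pH 7.5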
Sequence (P09958 whole entry): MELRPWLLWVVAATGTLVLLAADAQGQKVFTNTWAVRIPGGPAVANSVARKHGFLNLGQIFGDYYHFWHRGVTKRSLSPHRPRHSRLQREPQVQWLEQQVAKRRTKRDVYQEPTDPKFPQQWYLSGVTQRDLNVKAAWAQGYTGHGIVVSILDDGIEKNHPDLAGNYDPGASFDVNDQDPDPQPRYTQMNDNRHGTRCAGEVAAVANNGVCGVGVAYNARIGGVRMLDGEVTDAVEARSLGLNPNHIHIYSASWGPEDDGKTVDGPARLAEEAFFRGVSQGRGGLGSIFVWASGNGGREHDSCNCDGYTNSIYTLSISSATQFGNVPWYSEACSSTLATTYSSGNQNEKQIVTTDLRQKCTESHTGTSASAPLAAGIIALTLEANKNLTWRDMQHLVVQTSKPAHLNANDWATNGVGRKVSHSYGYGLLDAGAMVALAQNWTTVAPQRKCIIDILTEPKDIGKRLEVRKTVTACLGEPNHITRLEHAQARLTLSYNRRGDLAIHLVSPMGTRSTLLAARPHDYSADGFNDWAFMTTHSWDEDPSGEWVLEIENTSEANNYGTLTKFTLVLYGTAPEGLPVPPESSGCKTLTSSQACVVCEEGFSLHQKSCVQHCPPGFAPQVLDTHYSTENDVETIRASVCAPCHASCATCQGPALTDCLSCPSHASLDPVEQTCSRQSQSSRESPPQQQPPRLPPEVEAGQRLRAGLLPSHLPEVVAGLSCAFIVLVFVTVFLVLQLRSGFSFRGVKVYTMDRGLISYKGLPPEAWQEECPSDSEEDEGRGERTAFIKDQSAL
Method Description: furin cleavage Z-score vs untreated control; higher = more cleavage, active = 3.5 or more, inactive = 1 or less, 8 variable residues between constant flanks
Experimental Setup: 30 min
The list shows a part of the results. How many sequences the whole screen found active is unknown.
Endpoint: furin cleavage Z-score
A bare number is all that is needed in reply.

Some solved cases for reference:
CAAEQFKQKAAGNASASA [HC1023] :: -1.43
CALGSRYKKAAGNASASA [FS-819] :: -0.113
CALGNIIMFAAGNASASA [HC1575] :: -0.0117

CARRSRLKRAAGNASASA [FS-496] yielded furin cleavage Z-score of 8.87
